Values were extracted from patent US20240299429A1.

assay: Urinary recovery rate after oral administration; type: in vivo; settings: urine; 1 g oral, human, up to eight hours after administration
measurement.kind: dose excreted (%)

| compound | unit.name | measured |
| --- | --- | --- |
| OC[C@H]1OC[C@@H](O)[C@@H](O)[C@@H]1O [1-deoxymannose, 1,5-anhydro-D-mannitol] | % | 43.3 |
